Measured activity coefficient of individual entries
experiment: activity coefficient (dimensionless); of the first substance listed, at infinite dilution; xn = mol fraction of the nth substance listed; conditions: 358.15 K; 101 kPa; Liquid; Chromatography; x1 = 0
property-label: activity coefficient

compound: CCCCCCCCCC [decane] + COCC[N+]1(C)CCCC1.O=S(=O)([N-]S(=O)(=O)C(F)(F)F)C(F)(F)F
property-label: activity coefficient
experimental-result: 56.1

compound: C1CCOC1 [tetrahydrofuran] + COCC[N+]1(C)CCCC1.O=S(=O)([N-]S(=O)(=O)C(F)(F)F)C(F)(F)F
property-label: activity coefficient
experimental-result: 0.87

compound: c1ccncc1 [pyridine] + COCC[N+]1(C)CCCC1.O=S(=O)([N-]S(=O)(=O)C(F)(F)F)C(F)(F)F
property-label: activity coefficient
experimental-result: 0.633

compound: CC(C)CC(C)(C)C [2,2,4-trimethylpentane] + COCC[N+]1(C)CCCC1.O=S(=O)([N-]S(=O)(=O)C(F)(F)F)C(F)(F)F
property-label: activity coefficient
experimental-result: 21.2
